- Test system: OVCAR-8 ovarian
- PROTOCOL TEXT: NCI-60 one-dose screen, 48 h (100 = growth as untreated, 0 = no growth, -100 = all killed)
- CONDITION DESCRIPTION: 10 µM unless noted
The panel holds about 83,000 compounds, 20% with a hit somewhere; the sample as a whole holds those more often.
I'd appreciate it if you could supply growth values for the items below.
Return type: number; implicit unit %.

*Q* In one line, give reported growth of the entry COc1cc(/C=C\c2cc(OC)c(OC)c(OC)c2)cc(N/C=C\C(=O)c2ccc(OC(F)(F)F)cc2)c1OC .
*A* 30

*Q* In one line, give reported growth of the entry NC(Cc1ccc(O)cc1)C(=O)N/N=C/c1ccc(N(CCCl)CCCl)cc1 (stereo not drawn) .
*A* 80.5

*Q* In one line, give reported growth of the entry Cc1ccc(C(=O)C2CN(C)CCC2(O)c2ccc(C)cc2)cc1 (stereo not drawn) .
*A* 107

*Q* In one line, give reported growth of the entry C[C@]12CC[C@H](OC3OC(O)C(O)C(O)C3O)C=C1CCC1C2CC[C@]2(C)[C@@H](c3ccc(=O)oc3)CC[C@]12O (stereo partly drawn) .
*A* 110

*Q* In one line, give reported growth of the entry Cc1ccccc1O .
*A* 103

*Q* In one line, give reported growth of the entry CC(C)CCC1(CCO)C(=O)NC(=S)NC1=O .
*A* 101

*Q* In one line, give reported growth of the entry NC(=O)OCC(CO)(c1ccccc1)c1ccccc1 .
*A* 100

*Q* In one line, give reported growth of the entry CCCCOC(=O)c1ccccc1C(=O)O.CCCCOC(=O)c1ccccc1C(=O)O.[Cu+2] .
*A* 108

Source listed as PubChem BioAssay (NCI).
